Experiment: Pharmacokinetics assay in rats (plasma concentration by LC/MS/MS)
Assay type: in vivo
Settings: both sexes, rat, plasma; SD rats, 25 mg/kg, intravenous injection; read-out: Mean Residence Time MRT
measurementKind: MRT (h)
Write the number in h without appending the unit.

Problem: Would you kindly share the measured MRT for `CC[C@@H]1C(=O)N(C)c2cnc(Nc3ccc(C(=O)N[C@H]4CC[C@H](N5CCN(CC6CC6)CC5)CC4)c4c3OCC4)nc2N1C(C)C` ?
Result: 22.8

---

Experiment: Pharmacokinetics assay in rats (plasma concentration by LC/MS/MS)
Assay type: in vivo
Conditions: both sexes, rat, plasma, po; SD rats, 25 mg/kg, intragastric administration; read-out: Apparent Distribution Volume Vz/F
measurementKind: Vd/F (L/kg)
Return type: number; implicit unit L/kg.

Problem: For the molecule shown here, CC[C@@H]1C(=O)N(C)c2cnc(Nc3ccc(C(=O)N[C@H]4CC[C@H](N5CCN(CC6CC6)CC5)CC4)c4c3OCC4)nc2N1C(C)C [Example 37] , give the reported Vd/F.
Result: 13.6
